- Target Entity: Human gelatinase-A (MMP-2) (Homo sapiens)
- Test Name: MMP inhibition, internal fluorescence quenching method (MCA peptide substrate)
- Format: biochemical
- Conditions: Protocol A: Tris/HCl pH 6.5, 37° C., MMP-2 19.2 picoM, substrate 3 μM; carboxylic acids; read-out: MMP-2 Ki
pKi: −log10 of the molar value. Structures can show the parent of a compound that is named as a salt.

{"columns": ["Compound", "Target Entity", "pKi"],
 "data": [
  ["O=C(O)C(CSc1nc2ccccc2[nH]1)CS(=O)(=O)c1ccc(-c2ccc(Cl)cc2)cc1 (centres unmarked) [Example 37]", "Human gelatinase-A (MMP-2) (Homo sapiens)", 7.74],
  ["CN1C(=O)N(CC(CS(=O)(=O)c2ccc(-c3ccc(Cl)cc3)cc2)C(=O)O)C(=O)C1(C)C (racemic) [Example 5]", "Human gelatinase-A (MMP-2) (Homo sapiens)", 8.26],
  ["O=C(O)C(COc1ccccc1)CS(=O)(=O)c1ccc(-c2ccc(Cl)cc2)cc1 (centres unmarked) [Example 17, sodium salt]", "Human gelatinase-A (MMP-2) (Homo sapiens)", 8.04],
  ["O=C(O)C(CSc1ccccc1)CS(=O)(=O)c1ccc(-c2ccc(Cl)cc2)cc1 (single isomer, unassigned) [3, Isomer 2]", "Human gelatinase-A (MMP-2) (Homo sapiens)", 6.18],
  ["Cc1cc(C)nc(SCC(CS(=O)(=O)c2ccc(-c3ccc(Cl)cc3)cc2)C(=O)O)n1 (centres unmarked) [Example 27]", "Human gelatinase-A (MMP-2) (Homo sapiens)", 7.64]
]}

====

- Target Entity: Human gelatinase-A (MMP-2) (Homo sapiens, UniProt P08253)
- Sequence (P08253 110-660): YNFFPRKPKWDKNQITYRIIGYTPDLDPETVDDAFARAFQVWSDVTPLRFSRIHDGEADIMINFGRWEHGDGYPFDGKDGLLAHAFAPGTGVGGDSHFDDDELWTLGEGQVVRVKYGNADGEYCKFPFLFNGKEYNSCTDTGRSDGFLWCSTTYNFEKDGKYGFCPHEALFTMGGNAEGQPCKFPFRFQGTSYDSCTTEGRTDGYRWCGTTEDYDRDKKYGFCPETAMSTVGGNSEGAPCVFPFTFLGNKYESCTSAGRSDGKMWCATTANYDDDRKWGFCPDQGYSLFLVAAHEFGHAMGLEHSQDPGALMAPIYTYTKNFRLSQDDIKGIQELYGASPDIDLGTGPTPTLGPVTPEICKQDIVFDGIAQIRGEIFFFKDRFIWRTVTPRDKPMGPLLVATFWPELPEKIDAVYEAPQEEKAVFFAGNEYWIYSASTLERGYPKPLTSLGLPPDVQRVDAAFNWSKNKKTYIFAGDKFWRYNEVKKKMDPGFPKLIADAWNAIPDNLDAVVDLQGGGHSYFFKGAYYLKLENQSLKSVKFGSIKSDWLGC
- Test Name: MMP inhibition, internal fluorescence quenching method (MCA peptide substrate)
- Format: biochemical
- Conditions: Protocol A: Tris/HCl pH 6.5, 37° C., MMP-2 19.2 picoM, substrate 3 μM; carboxylic acids; read-out: MMP-2 Ki
pKi: −log10 of the molar value.

{"columns": ["Compound", "pKi"],
 "data": [
  ["Cn1ccnc1SCC(CS(=O)(=O)c1ccc(-c2ccc(Cl)cc2)cc1)C(=O)O (centres unmarked)", 7.80],
  ["O=C(O)C(CSc1nccs1)CS(=O)(=O)c1ccc(-c2ccc(Cl)cc2)cc1 (centres unmarked)", 8.18],
  ["O=C(O)C(CSc1ccccc1)CS(=O)(=O)c1ccc(-c2ccc(Cl)cc2)cc1 (single isomer, unassigned) [3, Isomer 1]", 8.22],
  ["O=C(Nc1ccc(S(=O)(=O)CC(CSc2ccccc2)C(=O)O)cc1)c1ccccc1 (centres unmarked)", 8.15],
  ["N#Cc1ccc(-c2ccc(S(=O)(=O)CC(CSc3ccccc3)C(=O)O)cc2)cc1 (centres unmarked)", 7.77]
]}

Where do the numbers come from? From patent US6765003B1.
